Test: Kinetic aqueous solubility of compound at 500 uM at pH 2 after 90 mins by UV-vis spectrophotometric analysis
Assay type: physicochemical
Settings: buffer, pH 2, 1.5 h, 500 µM
Please go through the items and note down their log(Kinetic_solubility).

Item `O=C(Nc1cc2cc[nH]c2cn1)c1ccc(Cl)c(Cl)c1` has what recorded log(Kinetic_solubility)?
-3.37

How about this compound: `O=C(Nc1ccc2[nH]ccc2n1)c1ccc(Cl)c(F)c1`
-3.41

One more compound: `O=C(Nc1ccc2[nH]ccc2n1)c1ccc(Cl)c(Cl)c1`
-3.33

Also check `O=C(Nc1ccc2[nH]ccc2n1)c1ccc(F)c(Cl)c1`
-3.33
